# Test system: Heme
# measurement-description: Binding affinity to heme assessed as equilibrium binding constant by UV-visible spectrophotometry
reported-property: Ka (×10⁴ /M)

mol: O=c1c2ccccc2[nH]c2cc([N+](=O)[O-])ccc12
reported-property: Ka
meas-value: 4.3
//
mol: O=C(O)c1cccc2c(=O)c3ccccc3[nH]c12
reported-property: Ka
meas-value: 3.8
//
mol: COc1cc2c(c(O)c1OC)c(=O)c1ccccc1n2C
reported-property: Ka
meas-value: 3.9
//
mol: O=c1c2ccccc2[nH]c2ccccc12
reported-property: Ka
meas-value: 2.4

P: O=c1c2ccccc2[nH]c2cc(Cl)ccc12
Q: COc1ccc2[nH]c3ccccc3c(=O)c2c1
I'm curious, which of these has a smaller Ka number: P or Q ? Refer to your chosen item by its label in the answer. Q
(Q: 2.7 ×10⁴ /M, P: 4.6 ×10⁴ /M)
